Test system: hepatocytes isolated from Wistar rat liver
Test: Test of inhibition of hepatic production of glucose (isolated hepatocytes, 3 h or 20 h incubation)
Format: cell-based
Conditions: Rattus norvegicus, Hepatocyte, 3 h, hepatic glucose production, rat hepatocytes, 3 h incubation, compound at 50 μM; read-out: HGP % of ctrl @ 50 μM
Would you mind telling me the reported activity at 50 µM of each entry?

Inquiry: Need activity at 50 µM of CCOC(=O)Cc1cc(C(=O)NNC(=O)c2cccc(OC)c2)sc1-c1ccc(Cl)cc1 , thanks.
Reply text: 92%

Inquiry: Moving on to CCOC(=O)Cc1cc(C(=O)c2cccc(F)c2)sc1-c1ccc(OC)cc1
Reply text: 86%

Inquiry: Param item: CCOC(=O)Cc1cc(C(=O)CCc2ccccc2)sc1-c1ccc(OC)cc1
Reply text: 74%

Inquiry: Param item: CCOC(=O)Cc1cc(S(=O)(=O)c2ccc(OC)cc2)sc1-c1ccc(Cl)c(Cl)c1
Reply text: 73%

Inquiry: Lookup CC(C)OC(=O)Cc1cc(C(=O)c2ccco2)sc1-c1ccc(Cl)cc1F
Reply text: 89%

Inquiry: And then CCOC(=O)Cc1cc(C(=O)c2ccco2)sc1-c1ccc(Cl)cc1 , what is it?
Reply text: 64%

Inquiry: Same thing, different compound: O=C(O)Cc1cc(C(=O)c2ccco2)sc1-c1ccccc1
Reply text: 91%

Inquiry: Also COC(=O)Cc1cc(C(=O)c2ccco2)sc1-c1ccccc1 , if possible.
Reply text: 82%

Inquiry: Field entry: O=C(O)Cc1cc(C(=O)Cc2ccc(F)cc2)sc1-c1ccccc1
Reply text: 85%

Inquiry: Lookup COc1ccc(-c2sc(C(=O)c3ccccc3OC)cc2CC(=O)O)cc1
Reply text: 86%

Inquiry: Follow-up entry: COc1ccc(NC(=O)c2cc(CC(=O)O)c(-c3ccc(Cl)cc3)s2)cc1
Reply text: 80%
